target: human Cereblon WT GST-tagged protein (Homo sapiens, UniProt Q96SW2); construct: purchased CISBIO 64BDCRBNPEH; experiment: CRBN-binding affinity by HTRF (CEREBLON BINDING kit); details: HTRF inhibitory activity, CEREBLON BINDING kit; read-out: HTRF IC50
Sequence (Q96SW2 whole entry): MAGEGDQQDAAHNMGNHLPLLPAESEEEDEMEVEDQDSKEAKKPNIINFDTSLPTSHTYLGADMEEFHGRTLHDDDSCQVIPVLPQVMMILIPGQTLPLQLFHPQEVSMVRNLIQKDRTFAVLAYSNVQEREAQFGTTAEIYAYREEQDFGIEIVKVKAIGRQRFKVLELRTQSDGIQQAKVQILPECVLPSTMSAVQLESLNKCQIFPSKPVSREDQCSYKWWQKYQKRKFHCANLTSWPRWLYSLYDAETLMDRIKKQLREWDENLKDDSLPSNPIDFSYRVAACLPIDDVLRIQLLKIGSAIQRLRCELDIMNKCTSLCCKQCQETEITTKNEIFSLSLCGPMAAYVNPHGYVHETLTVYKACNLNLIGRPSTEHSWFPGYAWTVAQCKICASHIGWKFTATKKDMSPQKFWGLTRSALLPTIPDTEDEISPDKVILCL
Reported IC50 by item:
measured-quantity: IC50

                                    molecule                           subject_of_test  measured_quantity  endpoint_result
 0  O=C1CCC(N2Cc3cc(CN4CCN(c5nc(N6CCOCC6)nc6c5SCC6)CC4)ccc3C2=O)C(=O)N1 (stereo not shown)  human Cereblon WT GST-tagged protein (Homo sapiens, UniProt Q96SW2)               IC50         < 0.5 µM
 1  Cc1ccc(C2=CCN(Cc3ccc4c(c3)CN(C3CCC(=O)NC3=O)C4=O)CC2)s1 (stereo not shown)  human Cereblon WT GST-tagged protein (Homo sapiens, UniProt Q96SW2)               IC50      0.5 to 1 µM
 2  O=C1CCC(N2C(=O)c3ccc(CN4CC=C(c5ccnc(Cl)c5Cl)CC4)cc3C2=O)C(=O)N1 (stereo not shown)  human Cereblon WT GST-tagged protein (Homo sapiens, UniProt Q96SW2)               IC50    1.5 to 1.9 µM
 3  O=C1CCC(N2Cc3cc(CN4CCN(c5ncccn5)CC4)ccc3C2=O)C(=O)N1 (stereo not shown)  human Cereblon WT GST-tagged protein (Homo sapiens, UniProt Q96SW2)               IC50      0.5 to 1 µM
 4  O=C1CCC(N2Cc3cc(CN4CCN(c5ncnc6ccsc56)CC4)ccc3C2=O)C(=O)N1 (stereo not shown)  human Cereblon WT GST-tagged protein (Homo sapiens, UniProt Q96SW2)               IC50      0.5 to 1 µM
 5  Cc1ccc(N2CCN(Cc3ccc4c(c3)CN(C3CCC(=O)NC3=O)C4=O)CC2)cc1 (stereo not shown)  human Cereblon WT GST-tagged protein (Homo sapiens, UniProt Q96SW2)               IC50      1 to 1.5 µM
 6  O=C1CCC(N2Cc3ccc(CN4CCC(c5noc6cc(F)ccc56)CC4)cc3C2=O)C(=O)N1 (stereo not shown)  human Cereblon WT GST-tagged protein (Homo sapiens, UniProt Q96SW2)               IC50    1.5 to 1.9 µM
 7  O=C1CCC(N2Cc3cc(CN4CCC(c5ncc6ccsc6n5)CC4)ccc3C2=O)C(=O)N1 (stereo not shown)  human Cereblon WT GST-tagged protein (Homo sapiens, UniProt Q96SW2)               IC50      0.5 to 1 µM
 8  O=C1CCC(N2Cc3cc(CN4CC=C(c5ncccc5F)CC4)ccc3C2=O)C(=O)N1 (stereo not shown)  human Cereblon WT GST-tagged protein (Homo sapiens, UniProt Q96SW2)               IC50         < 0.5 µM
 9  O=C1CCC(N2Cc3cc(CN4CCN(c5ncnc6sc(Br)cc56)CC4)ccc3C2=O)C(=O)N1 (stereo not shown)  human Cereblon WT GST-tagged protein (Homo sapiens, UniProt Q96SW2)               IC50         < 0.5 µM
10  O=C1CCC(N2C(=O)c3ccc(CN4CC=C(c5ncnc6scc(-c7ccccc7)c56)CC4)cc3C2=O)C(=O)N1 (stereo not shown)  human Cereblon WT GST-tagged protein (Homo sapiens, UniProt Q96SW2)               IC50      1 to 1.5 µM
11  O=C1CCC(N2Cc3cc(CN4CC5CC(C4)N5c4cccc(Cl)c4Cl)ccc3C2=O)C(=O)N1 (stereo not shown)  human Cereblon WT GST-tagged protein (Homo sapiens, UniProt Q96SW2)               IC50    1.5 to 1.9 µM
12  O=C1CCC(N2Cc3cc(CN4CCN(c5ccccc5Cl)CC4)ccc3C2=O)C(=O)N1 (stereo not shown)  human Cereblon WT GST-tagged protein (Homo sapiens, UniProt Q96SW2)               IC50      0.5 to 1 µM
13  O=C1CCC(N2Cc3cc(CN4CCN(c5cccc(F)c5)CC4)ccc3C2=O)C(=O)N1 (stereo not shown)  human Cereblon WT GST-tagged protein (Homo sapiens, UniProt Q96SW2)               IC50      0.5 to 1 µM
14  O=C1CCC(N2Cc3cc(CN4CC=C(c5ccnc(Cl)c5Cl)CC4)ccc3C2=O)C(=O)N1 (stereo not shown)  human Cereblon WT GST-tagged protein (Homo sapiens, UniProt Q96SW2)               IC50         < 0.5 µM
15  Cc1csc2ncnc(N3CCN(Cc4ccc5c(c4)C(=O)N(C4CCC(=O)NC4=O)C5=O)CC3)c12 (stereo not shown)  human Cereblon WT GST-tagged protein (Homo sapiens, UniProt Q96SW2)               IC50      0.5 to 1 µM

----------
test system: NCI-H1975; test: Tumor cell proliferation inhibition (CellTiter-Meiluncell Luminescent Cell Viability Assay), NCI-H1975; settings: Homo sapiens, NCI-H1975, 96 h, read-out: inhibitory activity (IC50, nM) against tumor cells proliferation, H1975
measured-quantity: IC50

In [3]: df
Out[3]:
                                   molecule  endpoint_result
0  Cc1cc(C2CCN(Cc3ccc4c(c3)CN(C3CCC(=O)NC3=O)C4=O)CC2)cs1 (stereo not shown)     50 to 100 nM
1  O=C1CCC(N2Cc3cc(CN4CC=C(c5cccc6cnccc56)CC4)ccc3C2=O)C(=O)N1 (stereo not shown)      10 to 50 nM
2  O=C1CCC(N2Cc3cc(CN4CCC(c5ccsc5)CC4)ccc3C2=O)C(=O)N1 (stereo not shown)    100 to 500 nM
3  O=C1CCC(N2Cc3cc(CN4CCC(c5ccccc5F)CC4)ccc3C2=O)C(=O)N1 (stereo not shown)   500 to 1000 nM

----------
Reported IC50 by item:
biological target: human Cereblon WT GST-tagged protein (Homo sapiens); construct: purchased CISBIO 64BDCRBNPEH; test: CRBN-binding affinity by HTRF (CEREBLON BINDING kit); details: HTRF inhibitory activity, CEREBLON BINDING kit; read-out: HTRF IC50
measured-quantity: IC50

>>> df
                                   compound  endpoint_result
0  O=C1CCC(N2Cc3cc(CN4CCN(c5cnnc(Cl)c5Cl)CC4)ccc3C2=O)C(=O)N1 (centres unmarked)   500 to 1000 nM
1  O=C1CCC(N2Cc3cc(CN4CCN(c5ncnc6sc(-c7ccccc7)cc56)CC4)ccc3C2=O)C(=O)N1 (centres unmarked)         < 500 nM
2  O=C1CCC(N2Cc3cc(CN4CCC(c5ccnc6cc(F)ccc56)CC4)ccc3C2=O)C(=O)N1 (centres unmarked)   500 to 1000 nM
3  O=C1CCC(N2Cc3cc(CN4CCN(c5cccc(F)c5F)CC4)ccc3C2=O)C(=O)N1 (centres unmarked)   500 to 1000 nM
4  O=C1CCC(N2Cc3cc(CN4CCN(c5cccc6sccc56)CC4)ccc3C2=O)C(=O)N1 (centres unmarked)   500 to 1000 nM
5  O=C1CCC(N2Cc3cc(CN4CCC(c5noc6cc(F)ccc56)CC4)cc(F)c3C2=O)C(=O)N1 (centres unmarked)   500 to 1000 nM
6  Cc1nc(C2CCN(Cc3ccc4c(c3)CN(C3CCC(=O)NC3=O)C4=O)CC2)c2c(-c3ccccc3)csc2n1 (centres unmarked)         < 500 nM
7  O=C1CCC(N2Cc3cc(CN4CC=C(c5cncc(Cl)c5Cl)CC4)ccc3C2=O)C(=O)N1 (centres unmarked)         < 500 nM

----------
tested on: CCRF-CEM; experiment: Tumor cell proliferation inhibition (CellTiter-Meiluncell Luminescent Cell Viability Assay), CCRF-CEM; settings: Homo sapiens, 96 h, read-out: inhibitory activity (IC50, nM) against tumor cells proliferation, CCRF-CEM
Reported IC50 by item:
measured-quantity: IC50

>>> print(df.to_string())
                                    molecule  subject_of_test  measured_quantity  endpoint_result
 0  O=C1CCC(N2Cc3cc(CN4CCN(c5ccc(Br)cc5)CC4)ccc3C2=O)C(=O)N1 (centres unmarked)         CCRF-CEM               IC50       5 to 10 nM
 1  Cc1cscc1C1CCN(Cc2ccc3c(c2)CN(C2CCC(=O)NC2=O)C3=O)CC1 (centres unmarked)         CCRF-CEM               IC50      10 to 50 nM
 2  O=C1CCC(N2Cc3cc(CN4CCN(c5ccccc5)CC4)ccc3C2=O)C(=O)N1 (centres unmarked)         CCRF-CEM               IC50       5 to 10 nM
 3  O=C1CCC(N2Cc3cc(CN4CCC(c5ccc(Cl)cc5)CC4)ccc3C2=O)C(=O)N1 (centres unmarked)         CCRF-CEM               IC50       5 to 10 nM
 4  O=C1CCC(N2Cc3cc(CN4CCC(c5ccc(Br)cc5)CC4)ccc3C2=O)C(=O)N1 (centres unmarked)         CCRF-CEM               IC50      10 to 50 nM
 5  O=C1CCC(N2Cc3cc(CN4CCN(c5cccc(Cl)c5Cl)CC4)cc(F)c3C2=O)C(=O)N1 (centres unmarked)         CCRF-CEM               IC50    100 to 500 nM
 6  O=C1CCC(N2Cc3cc(CN4CCC(c5ccccc5F)CC4)ccc3C2=O)C(=O)N1 (centres unmarked)         CCRF-CEM               IC50      10 to 50 nM
 7  Cc1ccccc1N1CCN(Cc2ccc3c(c2)CN(C2CCC(=O)NC2=O)C3=O)CC1 (centres unmarked)         CCRF-CEM               IC50      10 to 50 nM
 8  O=C1CCC(N2Cc3cc(CN4CCN(c5cc(Cl)ccn5)CC4)ccc3C2=O)C(=O)N1 (centres unmarked)         CCRF-CEM               IC50      10 to 50 nM
 9  O=C1CCC(N2Cc3cc(CN4CCN(c5nsc6ccccc56)CC4)ccc3C2=O)C(=O)N1 (centres unmarked)         CCRF-CEM               IC50      10 to 50 nM
10  COc1ccccc1N1CCN(Cc2ccc3c(c2)CN(C2CCC(=O)NC2=O)C3=O)CC1 (centres unmarked)         CCRF-CEM               IC50     50 to 100 nM
11  O=C1CCC(N2Cc3cc(CN4CC=C(c5cccs5)CC4)ccc3C2=O)C(=O)N1 (centres unmarked)         CCRF-CEM               IC50        1 to 5 nM
12  O=C1CCC(N2Cc3cc(CN4CCC(c5ccccc5)CC4)ccc3C2=O)C(=O)N1 (centres unmarked)         CCRF-CEM               IC50      10 to 50 nM
13  O=C1CCC(N2Cc3cc(CN4CCC(c5cccc(C(F)(F)F)c5)CC4)ccc3C2=O)C(=O)N1 (centres unmarked)         CCRF-CEM               IC50        1 to 5 nM
14  O=C1CCC(N2Cc3cc(CN4CCN(c5cccc(C(F)(F)F)n5)CC4)ccc3C2=O)C(=O)N1 (centres unmarked)         CCRF-CEM               IC50       5 to 10 nM
15  O=C1CCC(N2Cc3cc(CN4CCN(c5ccc(F)cc5)CC4)ccc3C2=O)C(=O)N1 (centres unmarked)         CCRF-CEM               IC50       5 to 10 nM
16  Cc1cc(Cl)cc(N2CCN(Cc3ccc4c(c3)CN(C3CCC(=O)NC3=O)C4=O)CC2)n1 (centres unmarked)         CCRF-CEM               IC50       5 to 10 nM

Entry source: patent EP4745137A1
